Tested on: K4 kissing-loop RNA reporter;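 also: bound reporter read as fluorescence of individual clusters on recovered sequencing chips by microscopy, with normalized cluster intensities fitted with a binding model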
Procedure details: apparent KD of K4 kissing-loop reporter; higher = weaker reporter binding
Assay conditions: Eterna round: R107; input ligand: arginine 13.2 mM
Assign apparent KD of K4 kissing-loop reporter to each entry below.
Just the number in nM, nothing appended.

Task item: Please report the recorded apparent KD of K4 kissing-loop reporter for UUACGGUCCUCGGCCGCCACUCAUAGUGAUGUUAUGCUGCCUGAAGGCACCGGACCUGGAUAUCAGAGGACCGGGAGGCCAUUCG [theeternabot_exclusion_KL_Trp_B_6] .
Reply: 590

Task item: Which apparent KD of K4 kissing-loop reporter is reported for this sequence? AUUUUGGUUUAGAGUGAUGUUCCUUGUAUUCGAGGACCGGUACGGCCGCCACUCGAAUAGAAAAGAAAAGAAAUGUUUGAUUUUU [BDazzled - #7 SS Tryptophan A]
Reply: 211

Task item: If you can, please state the reported apparent KD of K4 kissing-loop reporter value of ACGUCAUCAAAAGGAUAUGCAUCGAAGUGAUGUUUCGUCAUAUCAGUCUGAUUGCAGCAAUUAGGAGCAGAAGGUUUAGUCCGGU [theeternabot_exclusion_KL_FMN_B_11] .
Reply: 80.7

Task item: Which measured apparent KD of K4 kissing-loop reporter value corresponds to UGGAUAUAGUGAUGUUAUAUAGAGAUGGAUACCAGUUAAGAGAAUAGCCCUUGGCAGCCGAAAGAAGUAUCAUUAGAGAAGAAUG [ExTheophyl.Ad] ?
Reply: 183
